Substrate: CC(C)CC(=O)C(=O)O
Experiment: purified protein
Format: biochemical, Saccharomyces cerevisiae
Details: forward reaction, 100 mM Glu, 50 μM PLP, 100 mM NH4Cl, 0.25 mM NADH, 200 mM potassium phosphate pH 8.0, 30°C, apparent
assay.readout: Km

Bat1ΔN16^WT (Saccharomyces cerevisiae S288C) (protein, first 16 residues (mitochondrial-targeting signal) removed; N-terminal His-tag (pET53-dest, tag not reported cut); E. coli BL21(DE3); dimer) LATGAPLDASKLKITRNPNPSKPRPNEELVFGQTFTDHMLTIPWSAKEGWGTPHIKPYGNLSLDPSACVFHYAFELFEGLKAYRTPQNTITMFRPDKNMARMNKSAARICLPTFESEELIKLTGKLIEQDKHLVPQGNGYSLYIRPTMIGTSKGLGVGTPSEALLYVITSPVGPYYKTGFKAVRLEATDYATRAWPGGVGDKKLGANYAPCILPQLQAAKRGYQQNLWLFGPEKNITEVGTMNVFFVFLNKVTGKKELVTAPLDGTILEGVTRDSVLTLARDKLDPQEWDINERYYTITEVATRAKQGELLEAFGSGTAAVVSPIKEIGWNNEDIHVPLLPGEQCGALTKQVAQWIADIQYGRVNYGNWSKTVADLN : 0.323 ± 0.101 mM
Bat2^WT (Saccharomyces cerevisiae S288C) (protein, N-terminal His-tag (pET53-dest, tag not reported cut); E. coli BL21(DE3); dimer) MTLAPLDASKVKITTTQHASKPKPNSELVFGKSFTDHMLTAEWTAEKGWGTPEIKPYQNLSLDPSAVVFHYAFELFEGMKAYRTVDNKITMFRPDMNMKRMNKSAQRICLPTFDPEELITLIGKLIQQDKCLVPEGKGYSLYIRPTLIGTTAGLGVSTPDRALLYVICCPVGPYYKTGFKAVRLEATDYATRAWPGGCGDKKLGANYAPCVLPQLQAASRGYQQNLWLFGPNNNITEVGTMNAFFVFKDSKTGKKELVTAPLDGTILEGVTRDSILNLAKERLEPSEWTISERYFTIGEVTERSKNGELLEAFGSGTAAIVSPIKEIGWKGEQINIPLLPGEQTGPLAKEVAQWINGIQYGETEHGNWSRVVTDLN : 0.212 ± 0.0610 mM
Bat2^WT (Saccharomyces cerevisiae S288C; G316S) (protein, N-terminal His-tag (pET53-dest, tag not reported cut); E. coli BL21(DE3); dimer) MTLAPLDASKVKITTTQHASKPKPNSELVFGKSFTDHMLTAEWTAEKGWGTPEIKPYQNLSLDPSAVVFHYAFELFEGMKAYRTVDNKITMFRPDMNMKRMNKSAQRICLPTFDPEELITLIGKLIQQDKCLVPEGKGYSLYIRPTLIGTTAGLGVSTPDRALLYVICCPVGPYYKTGFKAVRLEATDYATRAWPGGCGDKKLGANYAPCVLPQLQAASRGYQQNLWLFGPNNNITEVGTMNAFFVFKDSKTGKKELVTAPLDGTILEGVTRDSILNLAKERLEPSEWTISERYFTIGEVTERSKNGELLEAFGSSTAAIVSPIKEIGWKGEQINIPLLPGEQTGPLAKEVAQWINGIQYGETEHGNWSRVVTDLN : 0.681 ± 0.189 mM
